target: Serine/threonine-protein kinase B-raf (Homo sapiens, UniProt P15056, V600E); assay: Inhibition of BRAF V600E in human A375 cells assessed as reduction in ERK phosphorylation incubated for 1 hr by immunoblot analysis; assay type: cell-based
Sequence (P15056 2-766 V600E limits assumed): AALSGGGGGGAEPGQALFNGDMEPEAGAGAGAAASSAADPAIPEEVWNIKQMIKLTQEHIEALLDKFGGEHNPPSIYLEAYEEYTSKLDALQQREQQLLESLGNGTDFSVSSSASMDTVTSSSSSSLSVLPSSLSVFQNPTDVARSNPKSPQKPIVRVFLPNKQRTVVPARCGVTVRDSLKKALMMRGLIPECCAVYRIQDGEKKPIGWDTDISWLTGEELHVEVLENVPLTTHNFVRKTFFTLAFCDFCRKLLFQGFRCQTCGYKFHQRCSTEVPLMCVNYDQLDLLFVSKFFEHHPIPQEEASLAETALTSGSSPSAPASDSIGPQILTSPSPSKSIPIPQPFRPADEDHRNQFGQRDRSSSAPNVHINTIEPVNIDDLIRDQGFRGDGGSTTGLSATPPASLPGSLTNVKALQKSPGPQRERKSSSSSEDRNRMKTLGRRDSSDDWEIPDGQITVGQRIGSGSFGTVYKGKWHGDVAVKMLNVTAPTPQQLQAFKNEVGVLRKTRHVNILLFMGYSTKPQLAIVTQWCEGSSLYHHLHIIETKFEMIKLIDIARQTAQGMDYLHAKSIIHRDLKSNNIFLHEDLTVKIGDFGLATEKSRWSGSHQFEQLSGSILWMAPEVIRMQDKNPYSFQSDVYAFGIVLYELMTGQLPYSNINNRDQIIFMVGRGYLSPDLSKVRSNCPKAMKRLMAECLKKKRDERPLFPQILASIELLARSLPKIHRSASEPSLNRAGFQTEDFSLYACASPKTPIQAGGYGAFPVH
measurement-name: IC50 (nM)
# unit: nM | format: bare number

Return value of IC50 for input CCn1nc(C#Cc2c(C)ccc3c(Nc4ccc(Cl)cc4)nccc23)c2c(N)ncnc21 , no commentary.
420

---

Task for the reader: assign each of the following molecules its reported pIC50.
target: Serine/threonine-protein kinase B-raf (Homo sapiens, UniProt P15056, V600E); assay: Inhibition of recombinant His-tagged BRAF V600E mutant (unknown origin) (444-723 residues) expressed in Escherichia coli BL21(DE3)-RIL using MEKK97R as substrate assessed as reduction in phosphorylation incubated for 20 mins by immunoblot assay
Please keep in mind that pIC50 is minus log10 of the molar concentration; only the number is needed.

Answer with the recorded pIC50 for the molecule listed here: Cc1ccc2c(Nc3cccc(C(F)(F)F)c3)nccc2c1C#Cc1nn(C(C)C)c2ncnc(N)c12
7.68

Tell me measured pIC50 for CCn1nc(C#Cc2cccc3c(Nc4cccc(C(F)(F)F)c4)nccc23)c2c(N)ncnc21 please.
7.39

Find the measured pIC50 of CCn1nc(C#Cc2c(C)ccc3c(Nc4ccc(Cl)cc4)nccc23)c2c(N)ncnc21 and report it.
8.10

Dear colleague, please send me the reported pIC50 for CC(C)n1nc(C#Cc2cccc3c(Nc4ccc(Cl)cc4)nccc23)c2c(N)ncnc21 when you can.
7.54

Supply measured pIC50 of CC(C)n1nc(C#Cc2cccc3c(Nc4cccc(C(F)(F)F)c4)nccc23)c2c(N)ncnc21 in your reply.
6.85

---

Record form. Attribute: pIC50. Fill in for each entry.
tested on: A-375; assay: Antiproliferative activity at human A375 cells expressing BRAF V600E mutant assessed as reduction in cell viability incubated for 96 hrs by MTT assay; format: functional, cell-based; settings: A-375, 96 h
Reminder that pIC50 is minus the log10 of a molar concentration.

Quick one: give measured pIC50 for Cc1ccc2c(Nc3cccc(C(F)(F)F)c3)nccc2c1C#Cc1nn(C(C)C)c2ncnc(N)c12
6.06

Recall and state the measured pIC50 for CCn1nc(C#Cc2c(C)ccc3c(Nc4ccc(Cl)cc4)nccc23)c2c(N)ncnc21 .
6.38

---

tested on: A-375; experiment: Antiproliferative activity at human A375 cells expressing BRAF V600E mutant assessed as reduction in cell viability incubated for 96 hrs by MTT assay; type: functional, cell-based; settings: A-375, 96 h
measurement-name: IC50

Please supply the value of reported IC50 for the item CCn1nc(C#Cc2cccc3c(Nc4cccc(C(F)(F)F)c4)nccc23)c2c(N)ncnc21
> 10 µM

Identify IC50 associated with the compound CC(C)n1nc(C#Cc2cccc3c(Nc4ccc(Cl)cc4)nccc23)c2c(N)ncnc21
> 10 µM

Identify the reported IC50 for the following entry. CC(C)n1nc(C#Cc2cccc3c(Nc4cccc(C(F)(F)F)c4)nccc23)c2c(N)ncnc21
> 10 µM
